# protocol_notes: Hemolytic activity against human erythrocytes at 50 uM after 40 mins relative to control
# Type: ADME, cell-based, Erythrocyte
# recorded_conditions: read-out: Activity
Where a SMILES comes first, the peptide text is derived from it. [ ]: non-standard residue; d: D form.
parameter_measured: hemolysis at 40 min, 50 µM (%)

1) CC[C@H](C)[C@H](NC(=O)[C@H](CCCNC(=N)N)NC(=O)CNC(=O)[C@@H](CC(C)C)NC(=O)[C@H](Cc1ccccc1)NC(=O)[C@H](CCCCN)NC(=O)[C@H](CO)NC(=O)[C@H](Cc1ccccc1)NC(=O)[C@H](Cc1c[nH]c2ccccc12)NC(=O)[C@@H]1CCCN1C(=O)[C@@H](NC(=O)[C@@H](N)Cc1ccccc1)C(C)C)C(=O)N[C@@H](CC(C)C)C(N)=O (H-FVPWFSKF[dL]GRIL-NH2): 21
2) CC[C@H](C)[C@H](NC(=O)[C@H](CCCNC(=N)N)NC(=O)[C@H](Cc1c[nH]c2ccccc12)NC(=O)[C@@H](CC(C)C)NC(=O)[C@H](Cc1ccccc1)NC(=O)[C@H](CCCCN)NC(=O)[C@H](CO)NC(=O)[C@H](Cc1ccccc1)NC(=O)[C@H](Cc1c[nH]c2ccccc12)NC(=O)[C@@H]1CCCN1C(=O)[C@@H](NC(=O)[C@@H](N)Cc1ccccc1)C(C)C)C(=O)N[C@@H](CC(C)C)C(N)=O (H-FVPWFSKF[dL]WRIL-NH2): 37
3) CC[C@H](C)C(NC(=O)[C@H](CCCNC(=N)N)NC(=O)[C@@H](CCCCN)NC(=O)[C@@H](CC(C)C)NC(=O)[C@H](Cc1ccccc1)NC(=O)[C@H](CCCCN)NC(=O)[C@H](CO)NC(=O)[C@H](Cc1ccccc1)NC(=O)[C@H](Cc1c[nH]c2ccccc12)NC(=O)[C@@H]1CCCN1C(=O)[C@@H](NC(=O)[C@@H](N)Cc1ccccc1)C(C)C)C(=O)N[C@@H](CC(C)C)C(N)=O (single isomer, unassigned): 7

====

# protocol_notes: Metabolic stability in 90% human serum assessed as parent compound remaining at 0.2 mM after 45 mins by RP-UHPLC analysis
# Type: ADME, cell-free
# recorded_conditions: read-out: Stability
Where a SMILES comes first, the peptide text is derived from it. [ ]: non-standard residue; d: D form.
parameter_measured: remaining at 0.75 h, 200 µM (%)

1. CC[C@H](C)[C@H](NC(=O)[C@H](CCCNC(=N)N)NC(=O)CNC(=O)[C@@H](CC(C)C)NC(=O)[C@H](Cc1ccccc1)NC(=O)[C@H](CCCCN)NC(=O)[C@H](CO)NC(=O)[C@H](Cc1ccccc1)NC(=O)[C@H](Cc1c[nH]c2ccccc12)NC(=O)[C@@H]1CCCN1C(=O)[C@@H](NC(=O)[C@@H](N)Cc1ccccc1)C(C)C)C(=O)N[C@@H](CC(C)C)C(N)=O (H-FVPWFSKF[dL]GRIL-NH2): 45
2. CC[C@H](C)[C@H](NC(=O)[C@H](CCCNC(=N)N)NC(=O)[C@H](Cc1c[nH]c2ccccc12)NC(=O)[C@@H](CC(C)C)NC(=O)[C@H](Cc1ccccc1)NC(=O)[C@H](CCCCN)NC(=O)[C@H](CO)NC(=O)[C@H](Cc1ccccc1)NC(=O)[C@H](Cc1c[nH]c2ccccc12)NC(=O)[C@@H]1CCCN1C(=O)[C@@H](NC(=O)[C@@H](N)Cc1ccccc1)C(C)C)C(=O)N[C@@H](CC(C)C)C(N)=O (H-FVPWFSKF[dL]WRIL-NH2): 80
